These entries and their values trace back to ChEMBL document CHEMBL1134043.

- Target: Fructose-1,6-bisphosphatase 1 (Sus scrofa, UniProt P00636)
- Sequence (P00636 whole entry): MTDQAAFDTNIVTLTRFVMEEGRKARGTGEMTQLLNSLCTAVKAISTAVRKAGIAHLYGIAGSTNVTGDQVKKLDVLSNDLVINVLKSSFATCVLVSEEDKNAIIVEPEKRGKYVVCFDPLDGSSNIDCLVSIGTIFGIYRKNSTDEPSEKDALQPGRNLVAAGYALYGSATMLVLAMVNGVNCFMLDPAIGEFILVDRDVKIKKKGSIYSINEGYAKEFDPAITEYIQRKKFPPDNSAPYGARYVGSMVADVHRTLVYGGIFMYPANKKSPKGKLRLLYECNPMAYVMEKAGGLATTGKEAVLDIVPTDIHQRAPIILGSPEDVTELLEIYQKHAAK
Measurement Kind: IC50 (µM)

> print(dat)
                          compound.smiles                                    target  assay.value
1  CCOc1cc2ncnc(Nc3ccc(F)c(Cl)c3)c2cc1OCC  Fructose-1,6-bisphosphatase 1 (Sus scrofa, UniProt P00636)          3.1

1 = CCOc1cc2ncnc(Nc3cccc(Cl)c3)c2cc1OCC
2 = C#Cc1cccc(Nc2ncnc3cc(OC)c(OC)cc23)c1
Compare the recorded IC50 of 1 and 2 ; state which is larger. Let me know the label of the one you choose.
1
